Catalogue of Percent Effect values
- System: Plasmodium falciparum
- PROTOCOL_TEXT: Plasmodium falciparum sporozoite viability assay; also: in the data most compounds retested in dose-response had high values
- Assay type: functional, organism-based
Among all 34,000 compounds or so, about 290 (0.85%) showed an effect of 50% or more. The list comes from a sample in which strong results are over-represented; it also holds close analogues and randomly drawn compounds.
Please state the figure in %; there is no need to write the unit.

Recorded Percent Effect, per entry:
>>> df
                                   molecule  unit_spec  reported_measurement
0  Cn1cc(N2CCCC(NCc3cccc4c3OCCCO4)C2)cn1 (configuration not stated)          %                  11.2
1  CCc1n[nH]c(C2CN(Cc3nnc(C4CC4)o3)CCO2)n1 (configuration not stated)          %                 4.502

Percent Effect measured on `CN1CCC(c2cccc(Cc3ccc(C(F)(F)F)cc3)n2)CC1` = 3.398

Percent Effect measured on Cc1csc2c(N3CCC(NCCCC4CCOC4)CC3)ncnc12 (configuration not stated) = 2.368
